Reported pIC50 values are given for each entry in this list.
Molecular target: human TLR9 (Homo sapiens, UniProt Q9NR96)
Sequence (Q9NR96 26-1032): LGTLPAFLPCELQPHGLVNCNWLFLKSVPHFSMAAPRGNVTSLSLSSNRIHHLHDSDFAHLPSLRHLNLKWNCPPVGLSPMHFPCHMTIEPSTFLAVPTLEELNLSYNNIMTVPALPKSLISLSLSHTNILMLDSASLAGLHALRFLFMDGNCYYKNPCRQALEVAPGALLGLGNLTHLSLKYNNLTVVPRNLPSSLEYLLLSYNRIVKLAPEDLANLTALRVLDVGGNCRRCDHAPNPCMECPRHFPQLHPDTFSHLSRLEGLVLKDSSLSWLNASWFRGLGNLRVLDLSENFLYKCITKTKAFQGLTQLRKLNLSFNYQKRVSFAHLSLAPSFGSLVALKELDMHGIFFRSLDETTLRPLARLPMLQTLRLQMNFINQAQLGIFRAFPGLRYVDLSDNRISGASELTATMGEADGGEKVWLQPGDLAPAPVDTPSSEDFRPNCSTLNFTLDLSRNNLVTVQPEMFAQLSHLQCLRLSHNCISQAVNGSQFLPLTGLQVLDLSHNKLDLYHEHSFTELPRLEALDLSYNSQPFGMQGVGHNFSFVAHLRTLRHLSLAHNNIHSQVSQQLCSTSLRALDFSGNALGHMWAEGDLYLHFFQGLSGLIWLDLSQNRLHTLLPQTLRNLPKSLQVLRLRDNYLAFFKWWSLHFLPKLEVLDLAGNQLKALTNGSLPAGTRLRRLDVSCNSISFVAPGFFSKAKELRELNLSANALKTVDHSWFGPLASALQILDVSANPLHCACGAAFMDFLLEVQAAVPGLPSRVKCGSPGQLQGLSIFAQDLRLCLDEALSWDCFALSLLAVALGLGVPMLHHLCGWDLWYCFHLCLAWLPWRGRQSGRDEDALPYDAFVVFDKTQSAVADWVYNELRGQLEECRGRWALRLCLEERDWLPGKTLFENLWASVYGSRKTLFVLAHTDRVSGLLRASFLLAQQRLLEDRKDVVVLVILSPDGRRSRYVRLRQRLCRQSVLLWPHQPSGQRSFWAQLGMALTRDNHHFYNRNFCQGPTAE
Assay: TLR9 inhibition reporter assay (HEK-Blue cells, SEAP reporter, ODN2006 stimulation)
Conditions: HEK-Blue cells overexpressing human TLR9, SEAP reporter, ODN2006 5 nM
pIC50: −log10 of the molar value.
measured.metric: pIC50

compound="Cc1cc(-c2[nH]c3ccc(C4CCCN(C5CCN(C(C)C)CC5)C4)cc3c2C(C)C)cc(C)n1 (stereo not shown)" measured_metric=pIC50 recorded_measurement=6.38
compound="Cc1c(-c2[nH]c3ccc(C4CCC(NC5COC5)CC4)cc3c2C(C)C)cn2ncnc2c1C (single isomer, unassigned) [Example 85]" measured_metric=pIC50 recorded_measurement=5.54
compound="COc1cc(-c2[nH]c3ccc(C4CCC(N5CC[C@@H](N(C)C)C5)CC4)cc3c2C(C)C)cn2ncnc12 (stereo partly shown) [Example 28]" measured_metric=pIC50 recorded_measurement=6.48
compound="Cc1c(-c2[nH]c3ccc(C4CC5CN(C(=O)CN(C)C)CC5C4)cc3c2C(C)C)cn2cnnc2c1C (stereo not shown)" measured_metric=pIC50 recorded_measurement=5.15
compound="Cc1c(-c2[nH]c3ccc(C4CCC(NC5CC5)CC4)cc3c2C(C)C)cn2ncnc2c1C (stereo not shown) [Example 14]" measured_metric=pIC50 recorded_measurement=5.39
compound="Cc1cc(-c2[nH]c3ccc(CC4CCCN4)cc3c2C(C)C)cn2ncnc12 (stereo not shown)" measured_metric=pIC50 recorded_measurement=5.80
compound="Cc1c(-c2[nH]c3ccc(C4CC5CN(CC#N)CC5C4)cc3c2C(C)C)cn2cnnc2c1C (stereo not shown)" measured_metric=pIC50 recorded_measurement=5.43

Values compiled from patent US11878975B2.
